# experimentNotes: pH sensitivity of the calcium dissociation constant (Table 2)
# Type: binding
# measurementContext: pH 7.3, 20° C., 100 mM KCl, 10 mM MOPS; read-out: calcium Kd at pH 7.3
pKd: −log10 of the molar value.
quantity: pKd

O=C(O)CN1CCN(C(=O)CCc2ccc(N(CC(=O)O)CC(=O)O)c(OCCOc3cc4cc(-c5ncc(C(=O)O)o5)oc4cc3N(CC(=O)O)CC(=O)O)c2)CC1    6.69
Cc1ccc(N(CC(=O)O)CC(=O)O)c(OCCOc2cc3cc(-c4ncc(C(=O)O)o4)oc3cc2N(CC(=O)O)CC(=O)O)c1    6.79
